- Tested on: HOP-62
- Assay Procedure: Growth inhibition of human HOP62 cells after 48 hrs by sulforhodamine B assay
- Type: functional
- Measurement Parameters: HOP-62, 48 h
Value Kind: GI50
Provide the measurement as a number trailed by its unit.

[
  {
    "Structure String": "CC(C)=CCC/C(C)=C/CC/C(C)=C/CC[C@]1(C)CCc2c3c(c(C)c(C)c2O1)OCN(CCCCCCO)C3",
    "GI50": "2700 nM"
  },
  {
    "Structure String": "CC(C)=CCC/C(C)=C/CC/C(C)=C/CC[C@]1(C)CCc2c3c(cc(C)c2O1)OCN(C1CCN(Cc2ccccc2)CC1)C3",
    "GI50": "1820 nM"
  },
  {
    "Structure String": "CC(C)=CCC/C(C)=C/CC/C(C)=C/CC[C@]1(C)CCc2c3c(cc(C)c2O1)OCN(CCCO)C3",
    "GI50": "1780 nM"
  }
]

Then there is this compound:
If you can, please state the reported GI50 value of CC(C)=CCC/C(C)=C/CC/C(C)=C/CC[C@]1(C)CCc2c3c(cc(C)c2O1)OCN(CCCCCCO)C3 .
877 nM

---

- Tested on: NCI-H460
- Assay Procedure: Growth inhibition of human NCI-H460 cells after 48 hrs by sulforhodamine B assay
- Assay type: functional
- Measurement Parameters: NCI-H460, 48 h
Value Kind: GI50 (nM)
Your answer should be a plain number; it is taken to be in nM.

[
  {
    "Structure String": "CC(C)=CCC/C(C)=C/CC/C(C)=C/CC[C@]1(C)CCc2c3c(cc(C)c2O1)OCN(C1CCN(Cc2ccccc2)CC1)C3",
    "U": "nM",
    "GI50": 618
  }
]

If you can, please state the reported GI50 value of COc1ccc(CCN2COc3cc(C)c4c(c3C2)CC[C@@](C)(CC/C=C(\C)CC/C=C(\C)CCC=C(C)C)O4)cc1OC .
2180

If you can, please state the reported GI50 value of CC(C)=CCC/C(C)=C/CC/C(C)=C/CC[C@]1(C)CCc2c3c(cc(C)c2O1)OCN(CCCCO)C3 .
6180

If you can, please state the reported GI50 value of CC(C)=CCC/C(C)=C/CC/C(C)=C/CC[C@]1(C)CCc2c3c(c(C)c(C)c2O1)OCN(CCCCCCO)C3 .
3150

If you can, please state the reported GI50 value of CC(C)=CCC/C(C)=C/CC/C(C)=C/CC[C@]1(C)CCc2c3c(c(C)c(C)c2O1)OCN(CCCCO)C3 .
1940

If you can, please state the reported GI50 value of CC(C)=CCC/C(C)=C/CC/C(C)=C/CC[C@]1(C)CCc2c3c(cc(C)c2O1)OCN(CCc1ccc(O)cc1)C3 .
1120

---

- System: M14
- Assay Procedure: Growth inhibition of human M14 cells after 48 hrs by sulforhodamine B assay
- Format: functional
- Measurement Parameters: M14, 48 h
Each record here notes measured GI50.
Your answer should be a plain number; it is taken to be in µM.

Lab note: need GI50 for CC(C)=CCC/C(C)=C/CC/C(C)=C/CC[C@]1(C)CCc2c3c(cc(C)c2O1)OCN(CCCCCCO)C3 on M14, anyone have it?
0.979

Lab note: need GI50 for CC(C)=CCC/C(C)=C/CC/C(C)=C/CC[C@]1(C)CCc2c3c(cc(C)c2O1)OCN(C1CCN(Cc2ccccc2)CC1)C3 on M14, anyone have it?
1.89

Lab note: need GI50 for CC(C)=CCC/C(C)=C/CC/C(C)=C/CC[C@]1(C)CCc2c3c(cc(C)c2O1)OCN(CCCCCCCCO)C3 on M14, anyone have it?
1.14

Lab note: need GI50 for CC(C)=CCC/C(C)=C/CC/C(C)=C/CC[C@]1(C)CCc2c3c(c(C)c(C)c2O1)OCN(CCCCCCO)C3 on M14, anyone have it?
3.11

Lab note: need GI50 for CC(C)=CCC/C(C)=C/CC/C(C)=C/CC[C@]1(C)CCc2c3c(cc(C)c2O1)OCN(CCc1ccc(O)cc1)C3 on M14, anyone have it?
6.66

Lab note: need GI50 for CC(C)=CCC/C(C)=C/CC/C(C)=C/CC[C@]1(C)CCc2c3c(c(C)c(C)c2O1)OCN(CCCCO)C3 on M14, anyone have it?
5.99

Lab note: need GI50 for COc1ccc(CCN2COc3cc(C)c4c(c3C2)CC[C@@](C)(CC/C=C(\C)CC/C=C(\C)CCC=C(C)C)O4)cc1OC on M14, anyone have it?
1.79

---

Each record here notes measured growth at 10 µM.
- Test system: SK-MEL-28
- Assay Procedure: Growth inhibition of human SK-MEL-28 cells assessed as cell growth at 10 uM after 48 hrs by sulforhodamine B assay
- Assay type: functional
- Measurement Parameters: SK-MEL-28, 48 h, read-out: Activity
Your answer should be a plain number; it is taken to be in %.

Worked examples, 3 compounds total:
[
  {
    "Structure String": "CC(C)=CCC/C(C)=C/CC/C(C)=C/CC[C@]1(C)CCc2cc(O)c(C)c(C)c2O1",
    "growth at 10 µM (%)": 97.3
  },
  {
    "Structure String": "CC(C)=CCC/C(C)=C/CC/C(C)=C/CC[C@]1(C)CCc2c3c(c(C)c(C)c2O1)OCN(CCc1ccc(O)cc1)C3",
    "growth at 10 µM (%)": 76.6
  },
  {
    "Structure String": "CC(C)=CCC/C(C)=C/CC/C(C)=C/CC[C@]1(C)CCc2c3c(cc(C)c2O1)OCN(CCCCCCCCCCCCO)C3",
    "growth at 10 µM (%)": 75.3
  }
]

If you can, please state the reported growth at 10 µM value of CC(C)=CCC/C(C)=C/CC/C(C)=C/CC[C@]1(C)CCc2c3c(cc(C)c2O1)OCN(C1CCN(Cc2ccccc2)CC1)C3 .
60

---

- System: 786-0
- Assay Procedure: Growth inhibition of human 786-0 cells assessed as cell growth at 10 uM after 48 hrs by sulforhodamine B assay
- Format: functional
- Measurement Parameters: 786-0, 48 h, read-out: Activity
growth at 10 µM of 30% or higher: satisfied. Under 30%: not satisfied.

Consider the following illustrative entries.
[
  {
    "Structure String": "CC(C)=CCC/C(C)=C/CC/C(C)=C/CC[C@]1(C)CCc2c3c(cc(C)c2O1)OCN(CCCCO)C3",
    "Label Class": "not satisfied"
  },
  {
    "Structure String": "CC(C)=CCC/C(C)=C/CC/C(C)=C/CC[C@]1(C)CCc2c3c(c(C)c(C)c2O1)OCN(CCCCCCCCO)C3",
    "Label Class": "satisfied"
  },
  {
    "Structure String": "CC(C)=CCC/C(C)=C/CC/C(C)=C/CC[C@]1(C)CCc2c3c(c(C)c(C)c2O1)OCN(CCCCCCO)C3",
    "Label Class": "satisfied"
  },
  {
    "Structure String": "CC(C)=CCC/C(C)=C/CC/C(C)=C/CC[C@]1(C)CCc2c3c(cc(C)c2O1)OCN(CCc1ccc(O)cc1)C3",
    "Label Class": "satisfied"
  },
  {
    "Structure String": "CC(C)=CCC/C(C)=C/CC/C(C)=C/CC[C@]1(C)CCc2c3c(c(C)c(C)c2O1)OCN(CCCCCCCCCCCCO)C3",
    "Label Class": "satisfied"
  },
  {
    "Structure String": "CC(C)=CCC/C(C)=C/CC/C(C)=C/CC[C@]1(C)CCc2c3c(cc(C)c2O1)OCN(C1CCN(Cc2ccccc2)CC1)C3",
    "Label Class": "not satisfied"
  }
]

We now examine a further compound.
// inclusive: growth at 10 µM at least 30%? input: COc1ccc(CCNCc2c(O)c(C)c(C)c3c2CC[C@@](C)(CC/C=C(\C)CC/C=C(\C)CCC=C(C)C)O3)cc1OC
satisfied

---

- Test system: SN12C
- Assay Procedure: Growth inhibition of human SN12C cells after 48 hrs by sulforhodamine B assay
- Assay type: functional
API: label(entry) gives 1 if the entry's GI50 is strictly smaller than 2 µM; on equality or larger values it gives 0.

Consider the following illustrative entries.
[
  {
    "Structure String": "CC(C)=CCC/C(C)=C/CC/C(C)=C/CC[C@]1(C)CCc2c3c(cc(C)c2O1)OCN(CCCCCCCCO)C3",
    "Label Class": 1
  },
  {
    "Structure String": "CC(C)=CCC/C(C)=C/CC/C(C)=C/CC[C@]1(C)CCc2c3c(cc(C)c2O1)OCN(CCCCCO)C3",
    "Label Class": 0
  },
  {
    "Structure String": "CC(C)=CCC/C(C)=C/CC/C(C)=C/CC[C@]1(C)CCc2c3c(cc(C)c2O1)OCN(CCCO)C3",
    "Label Class": 1
  }
]

GI50 under 2 µM? Item: CC(C)=CCC/C(C)=C/CC/C(C)=C/CC[C@]1(C)CCc2c3c(cc(C)c2O1)OCN(CCCCO)C3
0

GI50 under 2 µM? Item: CC(C)=CCC/C(C)=C/CC/C(C)=C/CC[C@]1(C)CCc2c3c(cc(C)c2O1)OCN(CCc1ccc(O)cc1)C3
0

GI50 under 2 µM? Item: CC(C)=CCC/C(C)=C/CC/C(C)=C/CC[C@]1(C)CCc2c3c(c(C)c(C)c2O1)OCN(CCCCCCO)C3
0

GI50 under 2 µM? Item: COc1ccc(CCN2COc3cc(C)c4c(c3C2)CC[C@@](C)(CC/C=C(\C)CC/C=C(\C)CCC=C(C)C)O4)cc1OC
1

GI50 under 2 µM? Item: CC(C)=CCC/C(C)=C/CC/C(C)=C/CC[C@]1(C)CCc2c3c(c(C)c(C)c2O1)OCN(CCCCCO)C3
0

Data provenance is ChEMBL document CHEMBL2380254.
